Provenance of the data: ChEMBL document CHEMBL1154922

Test: Ratio of drug level in brain to plasma in transgenic mouse at 30 mg/kg, ip
Details: brain and plasma

- Structure string: "COCCN(C[C@H]1C[C@@H]1C)c1cc(-c2nnc([C@](C)(N)Cc3ccccc3)o2)c(Cl)c(N(C)S(C)(=O)=O)n1"
  Kp: 9

###

In this section, each of the compounds is paired with its reported IP.
Target: Beta-secretase 1 (Homo sapiens) (UniProt P56817)
Sequence (P56817 whole entry, the tested form may be a part): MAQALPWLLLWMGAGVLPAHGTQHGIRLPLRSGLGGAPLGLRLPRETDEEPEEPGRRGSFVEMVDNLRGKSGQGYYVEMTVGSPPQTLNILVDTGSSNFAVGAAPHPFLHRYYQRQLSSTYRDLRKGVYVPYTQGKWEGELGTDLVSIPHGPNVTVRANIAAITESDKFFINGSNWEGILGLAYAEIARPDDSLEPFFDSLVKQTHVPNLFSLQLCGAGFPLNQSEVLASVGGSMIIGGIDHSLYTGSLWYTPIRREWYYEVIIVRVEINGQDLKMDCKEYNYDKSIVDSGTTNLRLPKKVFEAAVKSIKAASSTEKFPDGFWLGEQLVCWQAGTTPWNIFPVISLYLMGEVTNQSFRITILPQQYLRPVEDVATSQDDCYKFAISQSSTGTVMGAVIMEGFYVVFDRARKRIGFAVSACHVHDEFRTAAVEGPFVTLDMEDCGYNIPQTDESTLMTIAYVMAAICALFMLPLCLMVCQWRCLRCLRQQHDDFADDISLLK
Experiment: Inhibition of BACE1-mediated production of secreted beta-secretase amino terminal fragment

- Structure string: "COCCN(C[C@H]1C[C@@H]1C)c1cc(-c2nnc([C@](C)(N)Cc3ccc(F)cc3)o2)c(Cl)c(N(C)S(C)(=O)=O)n1"
  Relation sign: "="
  IP (nM): 15
- Structure string: "COCCN(C[C@H]1C[C@@H]1C)c1cc(-c2nnc([C@](C)(N)Cc3cccc(Cl)c3)o2)c(Cl)c(N(C)S(C)(=O)=O)n1"
  Relation sign: "="
  IP (nM): 4320
- Structure string: "COCCN(C[C@H]1C[C@@H]1C)c1cc(-c2nnc([C@](C)(N)Cc3ccccc3)o2)c(Cl)c(N(C)S(C)(=O)=O)n1"
  Relation sign: "="
  IP (nM): 46
- Structure string: "CCCC[C@@](C)(N)c1nnc(-c2cc(N(CCOC)C[C@H]3C[C@@H]3C)nc(N(C)S(C)(=O)=O)c2Cl)o1"
  Relation sign: ">"
  IP (nM): 2200
- Structure string: "COCCN(C[C@H]1C[C@@H]1C)c1cc(-c2nnc([C@](C)(N)Cc3ccccc3F)o2)c(Cl)c(N(C)S(C)(=O)=O)n1"
  Relation sign: "="
  IP (nM): 195
- Structure string: "COCCN(C[C@H]1C[C@@H]1C)c1cc(-c2nnc([C@](C)(N)Cc3ccccc3Cl)o2)c(Cl)c(N(C)S(C)(=O)=O)n1"
  Relation sign: ">"
  IP (nM): 6700
- Structure string: "COCCN(C[C@H]1C[C@@H]1C)c1cc(-c2nnc([C@](C)(N)Cc3ccc4c(c3)OCO4)o2)c(Cl)c(N(C)S(C)(=O)=O)n1"
  Relation sign: "="
  IP (nM): 1100
- Structure string: "COCCN(C[C@H]1C[C@@H]1C)c1cc(-c2nnc([C@](C)(N)Cc3ccc(OC)cc3)o2)c(Cl)c(N(C)S(C)(=O)=O)n1"
  Relation sign: "="
  IP (nM): 4300

###

Biological target: Beta-secretase 1 (Homo sapiens)
Test: Inhibition of BACE1 at pH 6.5
Entries and their measured IP follow.

- Structure string: "COCCN(C[C@H]1C[C@@H]1C)c1cc(-c2nnc([C@](C)(N)Cc3ccccc3Cl)o2)c(Cl)c(N(C)S(C)(=O)=O)n1"
  IP: "340 nM"
- Structure string: "COCCN(C[C@H]1C[C@@H]1C)c1cc(-c2nnc([C@](C)(N)Cc3cccc(F)c3)o2)c(Cl)c(N(C)S(C)(=O)=O)n1"
  IP: "17 nM"
- Structure string: "COCCN(C[C@H]1C[C@@H]1C)c1cc(-c2nnc([C@](C)(N)Cc3ccccc3)o2)c(Cl)c(N(C)S(C)(=O)=O)n1"
  IP: "5 nM"
- Structure string: "COCCN(C[C@H]1C[C@@H]1C)c1cc(-c2nnc([C@](C)(N)Cc3ccc4c(c3)OCO4)o2)c(Cl)c(N(C)S(C)(=O)=O)n1"
  IP: "119 nM"
- Structure string: "COCCN(C[C@H]1C[C@@H]1C)c1cc(-c2nnc([C@](C)(N)Cc3cc(Br)c(F)cc3Br)o2)c(Cl)c(N(C)S(C)(=O)=O)n1"
  IP: "29000 nM"
- Structure string: "CCCC[C@@](C)(N)c1nnc(-c2cc(N(CCOC)C[C@H]3C[C@@H]3C)nc(N(C)S(C)(=O)=O)c2Cl)o1"
  IP: "1300 nM"
- Structure string: "COCCN(C[C@H]1C[C@@H]1C)c1cc(-c2nnc([C@](C)(N)Cc3cccc(OC)c3)o2)c(Cl)c(N(C)S(C)(=O)=O)n1"
  IP: "1500 nM"

###

List of concentration at 24 h values.
Test: Plasma concentration in Rhesus monkey at 15 mg/kg, po co-administered with CYP inhibitor ritonavir 10 mg/kg, po after 24 hrs
Type: ADME, organism-based, Macaca mulatta
Recorded metric: concentration at 24 h (nM)

- Structure string: "COCCN(C[C@H]1C[C@@H]1C)c1cc(-c2nnc([C@](C)(N)Cc3ccccc3)o2)c(Cl)c(N(C)S(C)(=O)=O)n1"
  Recorded metric: "concentration at 24 h"
  Data value: 100
- Structure string: "COCCN(C[C@H]1C[C@@H]1C)c1cc(-c2nnc([C@](C)(N)Cc3ccc(F)cc3)o2)c(Cl)c(N(C)S(C)(=O)=O)n1"
  Recorded metric: "concentration at 24 h"
  Data value: 30

###

Test: Plasma concentration in Rhesus monkey at 5 mg/kg, po co-administered with CYP inhibitor ritonavir 10 mg/kg, po after 4 hrs
Format: ADME, organism-based, Macaca mulatta

- Structure string: "COCCN(C[C@H]1C[C@@H]1C)c1cc(-c2nnc([C@](C)(N)Cc3ccc(F)cc3)o2)c(Cl)c(N(C)S(C)(=O)=O)n1"
  concentration at 4 h: "1310 nM"

###

Biological target: Beta-secretase 1 (Homo sapiens)
Assay: Inhibition of BACE1 at pH 6.5

- Structure string: "COCCN(C[C@H]1C[C@@H]1C)c1cc(-c2nnc([C@](C)(N)Cc3ccccc3F)o2)c(Cl)c(N(C)S(C)(=O)=O)n1"
  Scale unit: "nM"
  Relation sign: "="
  IP: 15
- Structure string: "COCCN(C[C@H]1C[C@@H]1C)c1cc(-c2nnc([C@](C)(N)Cc3ccccc3OC)o2)c(Cl)c(N(C)S(C)(=O)=O)n1"
  Scale unit: "nM"
  Relation sign: "="
  IP: 3500
- Structure string: "COCCN(C[C@H]1C[C@@H]1C)c1cc(-c2nnc([C@](C)(N)Cc3ccc(Br)cc3Br)o2)c(Cl)c(N(C)S(C)(=O)=O)n1"
  Scale unit: "nM"
  Relation sign: ">"
  IP: 600000
- Structure string: "COCCN(C[C@H]1C[C@@H]1C)c1cc(-c2nnc([C@](C)(N)Cc3ncco3)o2)c(Cl)c(N(C)S(C)(=O)=O)n1"
  Scale unit: "nM"
  Relation sign: "="
  IP: 49000
- Structure string: "COCCN(C[C@H]1C[C@@H]1C)c1cc(-c2nnc([C@](C)(N)Cc3ccc(Cl)cc3)o2)c(Cl)c(N(C)S(C)(=O)=O)n1"
  Scale unit: "nM"
  Relation sign: "="
  IP: 4
- Structure string: "COCCN(C[C@H]1C[C@@H]1C)c1cc(-c2nnc([C@](C)(N)Cc3cccc(Cl)c3)o2)c(Cl)c(N(C)S(C)(=O)=O)n1"
  Scale unit: "nM"
  Relation sign: "="
  IP: 65
- Structure string: "COCCN(C[C@H]1C[C@@H]1C)c1cc(-c2nnc([C@](C)(N)Cc3ccoc3)o2)c(Cl)c(N(C)S(C)(=O)=O)n1"
  Scale unit: "nM"
  Relation sign: "="
  IP: 142
- Structure string: "COCCN(C[C@H]1C[C@@H]1C)c1cc(-c2nnc([C@](C)(N)Cc3ccc(F)cc3)o2)c(Cl)c(N(C)S(C)(=O)=O)n1"
  Scale unit: "nM"
  Relation sign: "="
  IP: 2
- Structure string: "COCCN(C[C@H]1C[C@@H]1C)c1cc(-c2nnc([C@](C)(N)Cc3ccnc(OC)c3)o2)c(Cl)c(N(C)S(C)(=O)=O)n1"
  Scale unit: "nM"
  Relation sign: "="
  IP: 9900
- Structure string: "COCCN(C[C@H]1C[C@@H]1C)c1cc(-c2nnc([C@](C)(N)Cc3ccc(OC)nc3)o2)c(Cl)c(N(C)S(C)(=O)=O)n1"
  Scale unit: "nM"
  Relation sign: "="
  IP: 1400
- Structure string: "COCCN(C[C@H]1C[C@@H]1C)c1cc(-c2nnc([C@](C)(N)Cc3ccco3)o2)c(Cl)c(N(C)S(C)(=O)=O)n1"
  Scale unit: "nM"
  Relation sign: "="
  IP: 375
- Structure string: "COCCN(C[C@H]1C[C@@H]1C)c1cc(-c2nnc([C@](C)(N)Cc3ccc(OC)cc3)o2)c(Cl)c(N(C)S(C)(=O)=O)n1"
  Scale unit: "nM"
  Relation sign: "="
  IP: 180
